target: truncated PI3Kα (p110α/iSH2 p85α) (Homo sapiens (Human)); experiment: PI3KA_Act fluorescence polarization kinase assay (Ki); format: biochemical; conditions: 1 mM ATP
Sequence (P42336 whole entry, the tested form may be a part): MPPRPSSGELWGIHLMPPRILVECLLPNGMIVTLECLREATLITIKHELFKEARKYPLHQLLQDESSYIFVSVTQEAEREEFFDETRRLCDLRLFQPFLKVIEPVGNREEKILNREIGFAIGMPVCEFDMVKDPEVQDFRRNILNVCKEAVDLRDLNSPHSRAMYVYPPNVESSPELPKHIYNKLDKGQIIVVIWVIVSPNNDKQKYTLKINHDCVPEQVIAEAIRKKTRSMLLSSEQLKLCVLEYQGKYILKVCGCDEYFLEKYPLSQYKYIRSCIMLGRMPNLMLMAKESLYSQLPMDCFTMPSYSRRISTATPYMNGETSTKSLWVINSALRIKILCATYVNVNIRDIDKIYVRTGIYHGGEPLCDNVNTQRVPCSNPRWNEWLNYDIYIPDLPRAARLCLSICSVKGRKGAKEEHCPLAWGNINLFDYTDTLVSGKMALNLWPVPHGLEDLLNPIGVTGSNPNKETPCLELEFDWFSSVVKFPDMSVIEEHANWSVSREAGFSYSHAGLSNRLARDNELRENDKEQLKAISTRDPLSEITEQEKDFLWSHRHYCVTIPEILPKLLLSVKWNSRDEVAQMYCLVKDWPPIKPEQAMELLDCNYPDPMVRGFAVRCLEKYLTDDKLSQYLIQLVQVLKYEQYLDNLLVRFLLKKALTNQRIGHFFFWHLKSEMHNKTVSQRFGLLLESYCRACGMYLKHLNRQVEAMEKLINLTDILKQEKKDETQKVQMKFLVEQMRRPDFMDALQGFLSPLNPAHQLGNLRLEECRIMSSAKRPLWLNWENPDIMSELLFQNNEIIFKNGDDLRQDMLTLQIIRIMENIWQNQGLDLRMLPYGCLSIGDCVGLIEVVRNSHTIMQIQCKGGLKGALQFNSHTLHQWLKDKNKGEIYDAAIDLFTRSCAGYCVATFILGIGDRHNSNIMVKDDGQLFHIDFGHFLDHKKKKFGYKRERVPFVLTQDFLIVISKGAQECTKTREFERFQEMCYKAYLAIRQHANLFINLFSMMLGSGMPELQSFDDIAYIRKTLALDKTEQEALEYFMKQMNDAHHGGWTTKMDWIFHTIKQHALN
TEST READOUT: PI3KA_Act Ki (nM)
Answer in nM, number only, no unit symbol.

Consider the reported PI3KA_Act Ki for these molecules:
>  <MOLECULE>
CC1(C)CN[C@@H]1C(=O)N1CC[C@](C)(N2CCc3c(-c4cnc(N)nc4)nc(N4CCOCC4)nc32)C1.Cl

>  <MEASURE UNIT>
nM

>  <PI3KA_Act Ki>
0.041

$$$$
>  <MOLECULE>
C[C@@H]1COCCN1c1nc(-c2cnc(N)nc2)c2c(n1)N([C@@]1(C)CCNC1)CC2

>  <MEASURE UNIT>
nM

>  <PI3KA_Act Ki>
4.151

$$$$
>  <MOLECULE>
CCOC(=O)C(C)C(=O)N1CC[C@](C)(N2CCc3c(-c4cnc(N)nc4)nc(N4CCOCC4)nc32)C1 (stereo partly shown)

>  <MEASURE UNIT>
nM

>  <PI3KA_Act Ki>
0.042

$$$$
>  <MOLECULE>
C[C@H]1COCCN1c1nc(-c2cnc(N)nc2)c2c(n1)N(C1(C)CN(C(=O)OC(C)(C)C)C1)CC2

>  <MEASURE UNIT>
nM

>  <PI3KA_Act Ki>
0.040

$$$$
>  <MOLECULE>
COC(=O)N1CC(N2CCc3c(-c4cnc(N)nc4)nc(N4CCOCC4)nc32)C1

>  <MEASURE UNIT>
nM

>  <PI3KA_Act Ki>
0.235

$$$$
>  <MOLECULE>
C[C@H](O)COC(=O)N1CC(N2CCc3c(-c4cnc(N)nc4)nc(N4CCOCC4)nc32)C1

>  <MEASURE UNIT>
nM

>  <PI3KA_Act Ki>
0.230

$$$$
>  <MOLECULE>
C[C@H]1COCCN1c1nc(-c2cnc(N)nc2)c2c(n1)N([C@]1(C)CCN(S(C)(=O)=O)C1)CC2

>  <MEASURE UNIT>
nM

>  <PI3KA_Act Ki>
0.030

$$$$
>  <MOLECULE>
COC(=O)C(C)(C)N1CC[C@](C)(N2CCc3c(-c4cnc(N)nc4)nc(N4CCOCC4)nc32)C1

>  <MEASURE UNIT>
nM

>  <PI3KA_Act Ki>
0.445

$$$$

## Input Requested field: PI3KA_Act Ki. Item: C[C@]1(N2CCc3c(-c4cnc(N)nc4)nc(N4CCOCC4)nc32)CCN(S(C)(=O)=O)C1
## Output 0.027

## Input Fill in the blank: the reported PI3KA_Act Ki of COCC(C)(C)N1CCc2c(-c3cnc(N)nc3)nc(N3CCOCC3)nc21 is ____.
## Output 0.642

## Input What value of PI3KA_Act Ki has been reported for the following molecule? CC(=O)N1CC[C@](C)(N2CCc3c(-c4cnc(N)nc4)nc(N4CCOC[C@@H]4C)nc32)C1
## Output 0.052

## Input Given the molecule CC(C)(C)OC(=O)N1CC(C)(N2CCc3c(-c4cnc(N)nc4)nc(N4CCOCC4)nc32)C1 , what is its reported PI3KA_Act Ki?
## Output 0.019

## Input May I ask what PI3KA_Act Ki has been recorded for C[C@H]1COCCN1c1nc(-c2cnc(N)nc2)c2c(n1)N(C1CN(P(C)(C)=O)C1)CC2 ?
## Output 0.280
